target: WEE1 (Homo sapiens, UniProt P30291+Q96SW2); construct: C-terminal ePL-tagged (DiscoverX, Fremont, CA) full-length WEE1 expression construct; expressed in transfected cells; host or cells: LentiX-HEK293T (Invitrogen), lentiviral transduction; co-expressing GSPT1-GN (G576N, lacking the first 158 amino acids); assay: WEE1-ePL degradation assay (LentiX-WEE1-ePL-GSPT1-ND cells, InCELL Hunter luminescence, 4 h); type: cell-based; settings: 293T-LentiX WEE1-ePL cells, lower limit of the fit (0 = luciferase inhibitor, Ymax = DMSO control)
Sequence (P30291 whole entry): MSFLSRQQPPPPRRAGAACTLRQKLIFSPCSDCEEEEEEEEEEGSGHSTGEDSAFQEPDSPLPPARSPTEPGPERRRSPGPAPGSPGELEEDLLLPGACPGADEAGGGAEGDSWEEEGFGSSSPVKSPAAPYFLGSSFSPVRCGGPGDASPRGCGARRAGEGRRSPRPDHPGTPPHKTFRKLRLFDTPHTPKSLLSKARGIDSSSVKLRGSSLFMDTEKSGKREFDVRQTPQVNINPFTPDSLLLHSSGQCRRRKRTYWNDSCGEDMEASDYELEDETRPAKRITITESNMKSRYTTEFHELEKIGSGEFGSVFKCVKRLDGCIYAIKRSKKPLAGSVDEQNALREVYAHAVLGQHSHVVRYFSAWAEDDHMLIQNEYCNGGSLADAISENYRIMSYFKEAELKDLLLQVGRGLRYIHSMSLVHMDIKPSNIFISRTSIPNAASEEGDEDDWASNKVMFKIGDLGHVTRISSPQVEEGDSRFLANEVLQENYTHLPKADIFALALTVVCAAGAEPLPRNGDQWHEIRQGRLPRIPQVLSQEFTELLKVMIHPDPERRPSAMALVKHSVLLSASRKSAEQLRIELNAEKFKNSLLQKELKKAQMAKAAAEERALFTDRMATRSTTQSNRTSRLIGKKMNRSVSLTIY
Sequence (Q96SW2 whole entry): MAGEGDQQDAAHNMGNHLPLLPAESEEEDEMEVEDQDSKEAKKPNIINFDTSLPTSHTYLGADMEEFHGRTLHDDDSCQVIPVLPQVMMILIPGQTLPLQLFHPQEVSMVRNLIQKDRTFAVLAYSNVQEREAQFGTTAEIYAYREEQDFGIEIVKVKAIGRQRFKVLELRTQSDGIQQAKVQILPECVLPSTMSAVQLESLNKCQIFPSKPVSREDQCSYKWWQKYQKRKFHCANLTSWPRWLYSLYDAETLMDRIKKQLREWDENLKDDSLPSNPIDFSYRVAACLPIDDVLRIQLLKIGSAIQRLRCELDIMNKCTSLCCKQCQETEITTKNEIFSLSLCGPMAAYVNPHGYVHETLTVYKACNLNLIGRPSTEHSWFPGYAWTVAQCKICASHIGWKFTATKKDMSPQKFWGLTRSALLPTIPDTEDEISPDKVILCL
Sequence (Q16531 whole entry partner): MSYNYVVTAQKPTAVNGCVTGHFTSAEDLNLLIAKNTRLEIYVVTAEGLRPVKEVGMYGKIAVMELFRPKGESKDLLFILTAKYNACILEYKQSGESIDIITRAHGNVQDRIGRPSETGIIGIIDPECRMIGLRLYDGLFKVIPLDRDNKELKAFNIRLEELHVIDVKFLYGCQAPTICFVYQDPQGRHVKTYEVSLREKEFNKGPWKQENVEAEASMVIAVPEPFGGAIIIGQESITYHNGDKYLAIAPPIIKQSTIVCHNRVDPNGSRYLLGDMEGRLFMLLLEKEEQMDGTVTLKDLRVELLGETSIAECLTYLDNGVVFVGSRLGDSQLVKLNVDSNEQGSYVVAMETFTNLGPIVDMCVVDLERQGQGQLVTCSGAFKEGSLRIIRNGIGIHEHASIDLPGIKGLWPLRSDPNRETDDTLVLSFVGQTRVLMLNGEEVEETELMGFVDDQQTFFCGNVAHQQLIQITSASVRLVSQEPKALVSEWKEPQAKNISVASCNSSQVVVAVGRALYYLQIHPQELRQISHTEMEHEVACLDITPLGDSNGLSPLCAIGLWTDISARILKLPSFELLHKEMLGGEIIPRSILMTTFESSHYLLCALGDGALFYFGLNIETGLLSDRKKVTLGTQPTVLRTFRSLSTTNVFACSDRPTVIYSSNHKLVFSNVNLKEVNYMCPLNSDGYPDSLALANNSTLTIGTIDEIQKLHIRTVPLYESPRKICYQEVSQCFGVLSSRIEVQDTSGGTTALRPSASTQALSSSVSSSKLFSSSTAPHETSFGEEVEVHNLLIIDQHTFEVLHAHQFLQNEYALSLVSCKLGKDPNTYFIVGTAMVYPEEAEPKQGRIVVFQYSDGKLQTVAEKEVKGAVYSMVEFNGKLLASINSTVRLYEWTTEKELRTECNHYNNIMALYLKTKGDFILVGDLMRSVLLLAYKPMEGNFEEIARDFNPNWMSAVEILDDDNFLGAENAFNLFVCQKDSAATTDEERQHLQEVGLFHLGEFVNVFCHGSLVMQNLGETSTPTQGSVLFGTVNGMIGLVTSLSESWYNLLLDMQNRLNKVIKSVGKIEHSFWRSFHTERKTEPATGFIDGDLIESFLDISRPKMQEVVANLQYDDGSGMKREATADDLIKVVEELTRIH
PROPERTY: 293T-LentiX WEE1-ePL Degradation 4 hr (Ymin)

The cases that follow already have their 293T-LentiX WEE1-ePL Degradation 4 hr (Ymin) on record.
COC[C@H]1CC[C@H](c2ccc3cc(CN4CC[C@H](Oc5ccc6c(c5)CN(C5CCC(=O)NC5=O)C6=O)C4)ccc3n2)CC1 (stereo partly shown) : 33.24
CC1(C)COCC[C@H]1c1ccc2cc(CN3CC[C@H](Oc4ccc5c(c4)CN(C4CCC(=O)NC4=O)C5=O)C3)ccc2n1 (stereo partly shown) : 41
O=C1CCC(N2Cc3cc(O[C@H]4CCN(Cc5cnc6ccc(F)cc6c5)C4)ccc3C2=O)C(=O)N1 (stereo partly shown) : 30.015

[I] CNC(=O)c1ccc2cc(CN3CC[C@H](Oc4ccc5c(c4)CN(C4CCC(=O)NC4=O)C5=O)C3)ccc2n1 (stereo partly shown)
[II] Cc1cc(CN2CC[C@H](Oc3ccc4c(c3)CN(C3CCC(=O)NC3=O)C4=O)C2)ncc1OCC1CCOCC1 (stereo partly shown)
Endpoint returns the identifier whose 293T-LentiX WEE1-ePL Degradation 4 hr (Ymin) is numerically larger, either I or II . State the label of the item chosen. II
(II: 42, I: 26.91)

###

target: WEE1 (Homo sapiens, UniProt P30291+Q96SW2); construct: C-terminal ePL-tagged (DiscoverX, Fremont, CA) full-length WEE1 expression construct; expressed in transfected cells; host or cells: LentiX-HEK293T (Invitrogen), lentiviral transduction; co-expressing GSPT1-GN (G576N, lacking the first 158 amino acids); assay: WEE1-ePL degradation assay (LentiX-WEE1-ePL-GSPT1-ND cells, InCELL Hunter luminescence, 4 h); format: cell-based; details: 293T-LentiX WEE1-ePL cells, lower limit of the fit (Ymin=0 luciferase inhibitor, Ymax DMSO control)
PROPERTY: 293T-LentiX WEE1-ePL Degradation 4 hr (Ymin)

C[C@@H]1CN(Cc2cc(F)c3nc(C4CCOCC4)ccc3c2)C[C@H]1Oc1ccc2c(c1)CN([C@H]1CCC(=O)NC1=O)C2=O : 33.52

[A] CN(C)C1CCN(c2ccc3cc(CN4CC[C@H](Oc5ccc6c(c5)CN(C5CCC(=O)NC5=O)C6=O)C4)ccc3n2)CC1 (stereo partly shown)
[B] COC[C@@H]1CCCC[C@H]1c1ccc2cc(CN3CC[C@H](Oc4ccc5c(c4)CN(C4CCC(=O)NC4=O)C5=O)C3)ccc2n1 (stereo partly shown)
Larger number for 293T-LentiX WEE1-ePL Degradation 4 hr (Ymin): A , or B ? Pick one; state its label. A

[P] C[C@@H]1CN(Cc2ccc3nc([C@H]4CCOC4)ccc3c2)C[C@H]1Oc1ccc2c(c1)CN(C1CCC(=O)NC1=O)C2=O (stereo partly shown)
[Q] O=C1CCC(N2Cc3cc(O[C@@H]4CCN(Cc5c[nH]c6cnccc56)C4)ccc3C2=O)C(=O)N1 (stereo partly shown)
[R] COC[C@@H]1CN(Cc2ccc3nc(C4CCOCC4)ncc3c2)C[C@H]1Oc1ccc2c(c1)CN([C@H]1CCC(=O)NC1=O)C2=O
Could you please order the items by 293T-LentiX WEE1-ePL Degradation 4 hr (Ymin), going from the lowest number to the highest? Give me the labels in the order the question wants. R, P, Q
(R: 23.11, P: 33.41, Q: 93.39)

###

target: WEE1 (Homo sapiens, UniProt P30291+Q96SW2); construct: C-terminal ePL-tagged (DiscoverX, Fremont, CA) full-length WEE1 expression construct; expressed in transfected cells; host or cells: LentiX-HEK293T (Invitrogen), lentiviral transduction; co-expressing GSPT1-GN (G576N, lacking the first 158 amino acids); assay: WEE1-ePL degradation assay (LentiX-WEE1-ePL-GSPT1-ND cells, InCELL Hunter luminescence, 4 h); assay type: cell-based; conditions: 293T-LentiX WEE1-ePL cells, read-out: 293T-LentiX WEE1-ePL Degradation 4 hr (EC50)
PROPERTY: DC50 (nM)

Cc1ccc2ncc(CN3CC[C@H](Oc4ccc5c(c4)CN(C4CCC(=O)NC4=O)C5=O)C3)cc2c1 (some centres unmarked) : 9.38
COC[C@H]1CCC[C@H](c2ccc3cc(CN4CC[C@H](Oc5ccc6c(c5)CN(C5CCC(=O)NC5=O)C6=O)C4)ccc3n2)C1 (some centres unmarked) : 7.61
O=C1CCC(N2Cc3cc(O[C@@H]4CN(Cc5ccc6nc(C7CCOCC7)ccc6c5)C[C@@H]4F)ccc3C2=O)C(=O)N1 (some centres unmarked) : 13.2
CNC(=O)c1ncc2cc(CN3CC[C@H](Oc4ccc5c(c4)CN(C4CCC(=O)NC4=O)C5=O)C3)ccc2n1 (some centres unmarked) : 175
O=C1CCC(N2Cc3cc(O[C@H]4CCN(Cc5ccc6nc(OC7CCOCC7)ccc6c5)C4)ccc3C2=O)C(=O)N1 (some centres unmarked) : 4.52

[a] N#Cc1cnc2ccc(CN3CC[C@H](Oc4ccc5c(c4)CN(C4CCC(=O)NC4=O)C5=O)C3)cc2c1 (some centres unmarked)
[b] O=C1CCC(N2Cc3cc(O[C@H]4CCN(Cc5ccc6cccnc6c5)C4)ccc3C2=O)C(=O)N1 (some centres unmarked)
Lower value for measured DC50? Options: a , b Output the label that corresponds to your choice. a
(a: 4.18 nM, b: 30.1 nM)

###

target: WEE1 (Homo sapiens, UniProt P30291+Q96SW2); construct: C-terminal ePL-tagged (DiscoverX, Fremont, CA) full-length WEE1 expression construct; expressed in transfected cells; host or cells: LentiX-HEK293T (Invitrogen), lentiviral transduction; co-expressing GSPT1-GN (G576N, lacking the first 158 amino acids); experiment: WEE1-ePL degradation assay (LentiX-WEE1-ePL-GSPT1-ND cells, InCELL Hunter luminescence, 4 h); format: cell-based; settings: 293T-LentiX WEE1-ePL cells, read-out: 293T-LentiX WEE1-ePL Degradation 4 hr (EC50)
PROPERTY: DC50 (nM)

C[C@@H]1c2cc(O[C@H]3CCN(Cc4ccc5nc(N6CCOCC6)ncc5c4)C3)ccc2C(=O)N1[C@H]1CCC(=O)NC1=O : 4.84
O=C1CC[C@H](N2Cc3cc(O[C@H]4CCN(Cc5ccc6nc(C7CCOCC7)ccc6c5F)C4)ccc3C2=O)C(=O)N1 : 0.306
CNC(=O)c1ccc2cc(CN3CC[C@H](Oc4ccc5c(c4)CN(C4CCC(=O)NC4=O)C5=O)C3)ccc2n1 (stereo partly drawn) : 4.27
O=C1CCC(N2Cc3cc(O[C@H]4CCN(Cc5ccc6nc([C@@H]7CCC[C@@H](O)C7)ccc6c5)C4)ccc3C2=O)C(=O)N1 (stereo partly drawn) : 3.18
COc1cncc(CN2CC[C@H](Oc3ccc4c(c3)CN(C3CCC(=O)NC3=O)C4=O)C2)c1C (stereo partly drawn) : 28.5
O=C1CCC(N2Cc3cc(O[C@H]4CCN(Cc5cc6ccc(C7CCOCC7)cc6cn5)C4)ccc3C2=O)C(=O)N1 (stereo partly drawn) : 1.46
O=C1CCC(N2Cc3cc(O[C@H]4CCN(Cc5ccc6nc(C(F)(F)F)ncc6c5)C4)ccc3C2=O)C(=O)N1 (stereo partly drawn) : 8.11
CN(C)C1CCN(c2ccc3cc(CN4CC[C@H](Oc5ccc6c(c5)CN(C5CCC(=O)NC5=O)C6=O)C4)ccc3n2)CC1 (stereo partly drawn) : 26.2

[I] O=C1CCC(N2Cc3cc(O[C@H]4CCN(Cc5ccc6nc(N7CC(O)C7)ccc6c5)C4)ccc3C2=O)C(=O)N1 (stereo partly drawn)
[II] O=C1CCC(N2Cc3cc(O[C@H]4CCN(Cc5ccc6nc([C@H]7C[C@@H](O)C7)ccc6c5)C4)ccc3C2=O)C(=O)N1 (stereo partly drawn)
[III] C[C@H]1c2cc(O[C@H]3CCN(Cc4ccc5nc(N6CCOCC6)ncc5c4)C3)ccc2C(=O)N1[C@H]1CCC(=O)NC1=O
[IV] COC[C@@H]1CN(Cc2ccc3nc([C@H]4CCOC(C)(C)C4)ccc3c2)C[C@H]1Oc1ccc2c(c1)CN([C@H]1CCC(=O)NC1=O)C2=O
Sort entries by DC50 from minimum to maximum value. Lab note: record answer as labels in requested order. IV, II, I, III
(IV: 1.25 nM, II: 2.09 nM, I: 14.1 nM, III: 1180 nM)

###

molecular target: WEE1 (Homo sapiens, UniProt P30291+Q96SW2); construct: C-terminal ePL-tagged (DiscoverX, Fremont, CA) full-length WEE1 expression construct; expressed in transfected cells; host or cells: LentiX-HEK293T (Invitrogen), lentiviral transduction; co-expressing GSPT1-GN (G576N, lacking the first 158 amino acids); test: WEE1-ePL degradation assay (LentiX-WEE1-ePL-GSPT1-ND cells, InCELL Hunter luminescence, 4 h); assay type: cell-based; details: 293T-LentiX WEE1-ePL cells, read-out: 293T-LentiX WEE1-ePL Degradation 4 hr (EC50)
PROPERTY: DC50 (nM)

Examples with answers:
O=C1CC[C@H](N2Cc3cc(O[C@H]4CCN(Cc5cc(C(F)(F)F)c6nc(N7CCOCC7)ncc6c5)C4)ccc3C2=O)C(=O)N1 : 1.8
Cc1cc(C#N)c2cc(CN3CC[C@H](Oc4ccc5c(c4)CN(C4CCC(=O)NC4=O)C5=O)C3)ccc2n1 (stereo partly shown) : 20.7
O=C1CCC(N2Cc3cc(O[C@H]4CCN(Cc5ccc(C(F)(F)F)cn5)C4)ccc3C2=O)C(=O)N1 (stereo partly shown) : 52.6
CN1CCN(c2ccc3cc(CN4CC[C@H](Oc5ccc6c(c5)CN(C5CCC(=O)NC5=O)C6=O)C4)ccc3n2)CC1 (stereo partly shown) : 6.77

[P] O=C1CC[C@H](N2Cc3cc(O[C@H]4CCN(Cc5ccc6nc(N7CCCC7=O)ccc6c5)C4)ccc3C2=O)C(=O)N1
[Q] O=C1CCC(N2Cc3cc(O[C@H]4CCN(Cc5ccc6ncc(F)cc6c5F)C4)ccc3C2=O)C(=O)N1 (stereo partly shown)
Lab note: check whether P or Q has the lower measured DC50. Select an item and report its label. P
(P: 1.51 nM, Q: 8.71 nM)

[I] O=C1CCC(N2Cc3cc(O[C@H]4CCN(Cc5ccc6nc(N7C[C@H]8COC[C@H]8C7)ccc6c5)C4)ccc3C2=O)C(=O)N1 (stereo partly shown)
[II] O=C1CCC(N2C(=O)c3ccc(O[C@H]4CCN(Cc5ccc6ncccc6c5)C4)cc3C2=O)C(=O)N1 (stereo partly shown)
# compare DC50 for I vs II ; return the one with the smaller value When you have decided, please share the label of that item. I
(I: 3.61 nM, II: 43.4 nM)

[1] O=C1CCC(N2Cc3cc(O[C@H]4CCN(Cc5ccc6nc(C7COC7)ncc6c5)C4)ccc3C2=O)C(=O)N1 (stereo partly shown)
[2] O=C1CCC(N2Cc3cc(O[C@H]4CCN(Cc5ncc6ccccc6n5)C4)ccc3C2=O)C(=O)N1 (stereo partly shown)
Could you check which of 1 and 2 has a smaller value for DC50? Your choice should be expressed through its label. 1
(1: 16.8 nM, 2: 51.9 nM)
